Biological target: VEGF (R&D systems, Minneapolis, Minn.) (UniProt P15692-4 27-191, limits assumed)
Sequence (P15692 other isoform, or with tags, fused parts or gaps limits assumed): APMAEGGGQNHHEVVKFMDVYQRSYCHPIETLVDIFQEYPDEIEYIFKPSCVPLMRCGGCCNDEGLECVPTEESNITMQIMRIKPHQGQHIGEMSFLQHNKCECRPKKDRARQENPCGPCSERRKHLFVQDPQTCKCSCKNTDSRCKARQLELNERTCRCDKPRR
Experiment: BIAcore SPR, WT/mutant
Assay metric: Δkoff

input: May I ask what Δkoff has been recorded for 87 (antibody, human IgG1, V domains shown) VH: EVQLVESGGGLVQPGGSLRLSCAASGYTFTFYGMNWVRQAPGKGLEWVGWINTYTGEPTYAADFKRRFTFSLDTSKSTAYLQMNSLRAEDTAVYYCAKYPEYDGGSHWYFDVWGQGTLVTVSS VL: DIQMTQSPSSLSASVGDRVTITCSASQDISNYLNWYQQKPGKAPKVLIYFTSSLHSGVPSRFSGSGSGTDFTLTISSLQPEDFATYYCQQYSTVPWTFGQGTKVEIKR ?
output: 2.2 fold

input: Reported Δkoff, binder 84 (antibody, human IgG1, V domains shown) VH: EVQLVESGGGLVQPGGSLRLSCAASGYTFTFYGMNWVRQAPGKGLEWVGWINTYTGEPTYAADFKRRFTFSLDTSKSTAYLQMNSLRAEDTAVYYCAKYPPYEGSSHWYFDVWGQGTLVTVSS VL: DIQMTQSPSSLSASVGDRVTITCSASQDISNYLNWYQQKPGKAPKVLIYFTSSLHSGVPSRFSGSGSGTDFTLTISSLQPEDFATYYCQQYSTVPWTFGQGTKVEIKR : ____
output: 1.9 fold

input: State the recorded Δkoff for this entry: 85 (antibody, human IgG1, V domains shown) VH: EVQLVESGGGLVQPGGSLRLSCAASGYTFTFYGMNWVRQAPGKGLEWVGWINTYTGEPTYAADFKRRFTFSLDTSKSTAYLQMNSLRAEDTAVYYCAKYPEYEGSSHWYFDVWGQGTLVTVSS VL: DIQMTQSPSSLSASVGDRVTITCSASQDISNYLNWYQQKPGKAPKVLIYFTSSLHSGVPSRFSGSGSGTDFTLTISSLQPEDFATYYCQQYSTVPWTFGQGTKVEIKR
output: 2 fold
